# System: T1, EsCas13d, nuclease-dead (Eubacterium siraeum, UniProt B0MS50, R295A;H300A;R849A;H854A)
# T1 sequence: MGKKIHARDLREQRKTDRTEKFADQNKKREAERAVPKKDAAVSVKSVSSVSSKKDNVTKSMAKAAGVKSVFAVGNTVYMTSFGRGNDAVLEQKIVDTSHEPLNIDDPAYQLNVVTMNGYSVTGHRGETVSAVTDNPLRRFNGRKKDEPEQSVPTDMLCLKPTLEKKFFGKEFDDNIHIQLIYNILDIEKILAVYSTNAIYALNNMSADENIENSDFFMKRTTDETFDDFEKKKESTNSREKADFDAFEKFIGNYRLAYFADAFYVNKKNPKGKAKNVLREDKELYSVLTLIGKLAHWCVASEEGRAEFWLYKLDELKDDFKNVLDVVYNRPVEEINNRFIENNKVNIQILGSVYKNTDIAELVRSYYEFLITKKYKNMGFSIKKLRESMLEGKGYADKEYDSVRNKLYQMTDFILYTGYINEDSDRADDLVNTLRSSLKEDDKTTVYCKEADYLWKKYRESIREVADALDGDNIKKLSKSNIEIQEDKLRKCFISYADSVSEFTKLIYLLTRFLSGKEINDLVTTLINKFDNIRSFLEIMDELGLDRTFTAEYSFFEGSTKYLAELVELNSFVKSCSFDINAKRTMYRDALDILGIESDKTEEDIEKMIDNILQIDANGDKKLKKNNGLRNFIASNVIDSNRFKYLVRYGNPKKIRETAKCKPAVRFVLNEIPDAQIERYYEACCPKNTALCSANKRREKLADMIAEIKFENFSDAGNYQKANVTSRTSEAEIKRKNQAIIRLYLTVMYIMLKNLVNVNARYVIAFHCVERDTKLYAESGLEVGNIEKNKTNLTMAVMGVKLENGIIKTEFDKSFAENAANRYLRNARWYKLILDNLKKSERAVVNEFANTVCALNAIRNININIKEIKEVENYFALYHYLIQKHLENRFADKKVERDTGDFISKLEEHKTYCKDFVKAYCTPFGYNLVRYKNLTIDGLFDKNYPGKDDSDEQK
# Run description: crRNA (strand 1, pre-loaded); Mg2+; 40 mM Tris-HCl pH 7.5, 150 mM NaCl, 6 mM MgCl2, 1 mM DTT, 0.1% Tween-20, 0.2 mg/ml BSA; 25 C; 10 min per concentration, then washed
# Protocol conditions: tags: His6-TwinStrep-SUMO cleaved; N-terminal SNAP kept (SNAP-Surface 488); label: 3' end held by stalled T7 RNA polymerase
Reported Kd values for the following binders.
Answer with a number only, understood to be in µM.

Some solved cases for reference:
[in] Item under review: target 1 insG 3' of 22,insG 3' of 22 (mixed) RNA 1: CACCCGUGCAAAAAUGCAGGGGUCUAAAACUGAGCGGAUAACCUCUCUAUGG RNA 2: GGGAAUGGAUCCACAUCUACGAAUUCGUACGGCAUAGAGAGGUUAUCCGCUCACCGAGAUCGGAAGAGCACACGU . Reported Kd?
[out] 0.0346

[in] Item under review: target 1 insC 3' of 22,insU 3' of 9 (mixed) RNA 1: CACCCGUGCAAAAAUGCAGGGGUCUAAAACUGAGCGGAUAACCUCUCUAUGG RNA 2: GGGAAUGGAUCCACAUCUACGAAUUCGUACCCAUAGAGAGGUUAUUCCGCUCACCGAGAUCGGAAGAGCACACGU . Reported Kd?
[out] 0.03

[in] Item under review: target 3 insC 3' of 9,insG 3' of 9 (mixed) RNA 1: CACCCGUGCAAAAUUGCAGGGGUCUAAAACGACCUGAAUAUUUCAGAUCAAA RNA 2: GGGAAUGGAUCCACAUCUACGAAUUCGUUUUUGAUCUGAAAUACGUUCAGGUCUGCAGAUCGGAAGAGCACACGU . Reported Kd?
[out] 0.118

[in] Item under review: target 3 insG 3' of 9,insA 3' of 4 (mixed) RNA 1: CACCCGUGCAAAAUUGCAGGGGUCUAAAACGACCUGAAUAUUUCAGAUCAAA RNA 2: GGGAAUGGAUCCACAUCUACGAAUUCGUUUUUGAUCUGAAAUAGUUCAGAGUCUGCAGAUCGGAAGAGCACACGU . Reported Kd?
[out] 0.06

[in] Item under review: target 2 MT 5'PFS CGA 3'PFS CUU (mixed) RNA 1: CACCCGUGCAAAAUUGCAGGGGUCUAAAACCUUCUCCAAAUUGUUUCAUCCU RNA 2: GGGAAUGGAUCCACAUCUACGAAUUCCGAAGGAUGAAACAAUUUGGAGAAGCUUAGAUCGGAAGAGCACACGU . Reported Kd?
[out] 0.0083

[in] Item under review: target 1 insA 3' of 15,insA 3' of 4 (mixed) RNA 1: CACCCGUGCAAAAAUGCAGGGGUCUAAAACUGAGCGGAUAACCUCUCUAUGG RNA 2: GGGAAUGGAUCCACAUCUACGAAUUCGUACCAUAGAGAAGGUUAUCCGCAUCACCGAGAUCGGAAGAGCACACGU . Reported Kd?
[out] 0.0077

---
[in] Item under review: target 1 G12A,A18C (mixed) RNA 1: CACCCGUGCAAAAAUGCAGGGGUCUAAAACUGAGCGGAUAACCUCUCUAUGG RNA 2: GGGAAUGGAUCCACAUCUACGAAUUCGUACCAUCGAGAGAUUAUCCGCUCACCGAGAUCGGAAGAGCACACGU . Reported Kd?
[out] 0.051

[in] Item under review: target 2 MT 5'PFS GAG 3'PFS UAC (mixed) RNA 1: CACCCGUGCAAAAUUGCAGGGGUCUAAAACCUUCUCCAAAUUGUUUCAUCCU RNA 2: GGGAAUGGAUCCACAUCUACGAAUUCGAGAGGAUGAAACAAUUUGGAGAAGUACAGAUCGGAAGAGCACACGU . Reported Kd?
[out] 0.0106

[in] Item under review: target 1 insU 3' of 13,insC 3' of 3 (mixed) RNA 1: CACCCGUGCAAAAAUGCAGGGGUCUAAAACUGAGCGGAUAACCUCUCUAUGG RNA 2: GGGAAUGGAUCCACAUCUACGAAUUCGUACCAUAGAGAGUGUUAUCCGCUCCACCGAGAUCGGAAGAGCACACGU . Reported Kd?
[out] 0.025

[in] Item under review: target 1 G12U,U19C (mixed) RNA 1: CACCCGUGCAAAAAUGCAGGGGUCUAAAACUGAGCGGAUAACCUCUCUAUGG RNA 2: GGGAAUGGAUCCACAUCUACGAAUUCGUACCACAGAGAGUUUAUCCGCUCACCGAGAUCGGAAGAGCACACGU . Reported Kd?
[out] 0.042

[in] Item under review: target 3 insU 3' of 4,insA 3' of 3 (mixed) RNA 1: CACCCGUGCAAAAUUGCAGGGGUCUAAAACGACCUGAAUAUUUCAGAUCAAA RNA 2: GGGAAUGGAUCCACAUCUACGAAUUCGUUUUUGAUCUGAAAUAUUCAGUGAUCUGCAGAUCGGAAGAGCACACGU . Reported Kd?
[out] 0.0178

Ref: paper PMC10786891
